- systemName: Focal adhesion kinase 1 (Homo sapiens) (UniProt Q05397)
- Sequence (Q05397 whole entry, looked up): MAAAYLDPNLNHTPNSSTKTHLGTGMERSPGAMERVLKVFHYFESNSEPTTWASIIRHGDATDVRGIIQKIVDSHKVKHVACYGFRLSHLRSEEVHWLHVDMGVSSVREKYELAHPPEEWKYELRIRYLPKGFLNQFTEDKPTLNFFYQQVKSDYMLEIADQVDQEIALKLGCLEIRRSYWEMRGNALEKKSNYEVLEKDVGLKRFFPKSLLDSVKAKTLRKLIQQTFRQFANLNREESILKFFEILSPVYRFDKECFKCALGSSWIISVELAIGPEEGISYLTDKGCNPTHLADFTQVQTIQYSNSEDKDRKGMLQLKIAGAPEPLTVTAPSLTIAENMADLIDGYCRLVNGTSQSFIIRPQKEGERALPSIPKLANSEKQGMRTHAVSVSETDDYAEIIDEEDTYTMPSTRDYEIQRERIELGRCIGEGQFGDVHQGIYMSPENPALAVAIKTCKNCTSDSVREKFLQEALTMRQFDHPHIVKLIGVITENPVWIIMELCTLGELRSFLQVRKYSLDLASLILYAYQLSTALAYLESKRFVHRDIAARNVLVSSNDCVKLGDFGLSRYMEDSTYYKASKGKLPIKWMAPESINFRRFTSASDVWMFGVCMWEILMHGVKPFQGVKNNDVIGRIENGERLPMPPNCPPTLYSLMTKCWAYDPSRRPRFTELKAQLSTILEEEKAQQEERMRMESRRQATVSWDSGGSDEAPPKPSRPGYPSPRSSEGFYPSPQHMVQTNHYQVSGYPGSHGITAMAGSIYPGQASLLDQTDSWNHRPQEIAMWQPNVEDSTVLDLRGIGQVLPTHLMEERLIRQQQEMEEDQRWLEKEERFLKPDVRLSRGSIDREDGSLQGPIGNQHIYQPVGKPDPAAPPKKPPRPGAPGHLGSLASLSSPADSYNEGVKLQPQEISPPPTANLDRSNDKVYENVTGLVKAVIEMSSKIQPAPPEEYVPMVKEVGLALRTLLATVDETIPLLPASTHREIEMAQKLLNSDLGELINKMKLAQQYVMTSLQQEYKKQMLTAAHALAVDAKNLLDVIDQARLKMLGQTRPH
- assayComment: PTK2 protein binding on printed compound slides – biochemical, small-molecule microarray, 635/667 nm fluorescence, BSA, DTT, primary screen (AID 1130);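 further: composite of spot emission at 667 nm and signal to noise over triplicate slides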
- cond: 635 nm fluorescence, higher = more signal
experimentalEndpoint: composite z-score

Query string: I have this molecule here, `C=C[C@H](C)[C@H](O)c1ccc(OCCO)cc1` , and I need its recorded composite z-score.
Result string: 0.151

Query string: Consider next the molecule Cc1ccc(C(C)CC(O)C2C=CC3C(=O)NC(=O)C3N2Nc2ccccn2)o1 (centres undefined) in the same way.
Result string: -0.121

Query string: Consider next the molecule CS(=O)(=O)CCOC(=O)C1=CC(c2ccc(CO)cc2)=CC(c2cccs2)N(Cc2cccc(OC(F)(F)F)c2)C=C1C(=O)OCCS(C)(=O)=O (centres undefined) in the same way.
Result string: 0.513

Query string: Consider next the molecule `[N-]=[N+]=Nc1ccccc1[C@@H]1OC(c2ccc(OCCCO)cc2)=N[C@]1(CCS(=O)(=O)c1ccccc1)C(=O)N1CCCCC1` in the same way.
Result string: 0.539

====

Can you tell me composite z-score for the items I'm about to list?
- assayComment: small molecules captured by biotinylated probe aFGF10 – biochemical, small-molecule microarray, fluorescence 635/667, stem cell growth factor project, primary screen (AID 1071);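 further: score merges 667 nm spot intensity and signal to noise from triplicate slides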
- cond: higher = more signal
Give the figure only, with no unit attached.

Query string: I have this molecule here, `COC(=O)[C@@]1(Cc2ccc(F)cc2)[C@H]2c3cc(C(=O)N4CCCC4)n(CCc4ccc(OC)c(Br)c4)c3C[C@H]2CN1C(=O)c1ccccc1` , and I need its recorded composite z-score.
Result string: 0.832

Query string: Consider next the molecule O=C1C2C=CC(C(O)c3ccc(Br)cc3)N(n3cnnc3)C2C(=O)N1Cc1ccccc1 (centres undefined) in the same way.
Result string: 0.533

Query string: Consider next the molecule `CC(C)C[C@@H]1NC(=O)[C@@H]2C[C@H](C(=O)NCCCCN(C)C)[C@H](c3ccc(O)cc3)N2C1=O` in the same way.
Result string: -1.02

Query string: Consider next the molecule CCCCCN1CC=CC23O[C@@H]4C=CCCOC(=O)C4[C@H]2C(=O)N(CCCO)[C@@H]3C1=O (some centres undefined) in the same way.
Result string: 0.0149

====

- assayComment: S. pombe growth modifiers, basal conditions – strain 972, OD600, 24 h, no modulator, primary screen (AID 1090);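 further: basal condition with compound alone and no growth modifier present; test concentration not given here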
- cond: S. pombe 972 growth, higher = more signal, called active from +8 up or from −8 down
experimentalEndpoint: z-score
Give the figure only, with no unit attached.

Query string: I have this molecule here, `CC(C)(C)OC(=O)CC[C@@]1(C(=O)N2CCOCC2)N=C(c2ccc(OCCCO)cc2)O[C@@H]1c1ccccc1N=[N+]=[N-]` , and I need its recorded z-score.
Result string: -0.165

Query string: Consider next the molecule `C=C(/C(=C/C[C@@H](OC(C)=O)c1ccc(CO)o1)c1cnc2ccccc2c1)C(C)C` in the same way.
Result string: -0.767

Query string: Consider next the molecule `NC(=O)NCC#Cc1ccc2c(c1)[C@]1(C(=O)N2)[C@H](c2ccc(O)cc2)N2[C@H](c3ccccc3)[C@H](c3ccccc3)OC(=O)[C@H]2[C@@H]1C(=O)N1CCN(c2ncccn2)CC1` in the same way.
Result string: -0.923

Query string: Consider next the molecule `CC(C)CNC(=O)[C@@]1(C)c2ccccc2C(=O)N(C(C)C)[C@H]1c1ccc(CO)cc1` in the same way.
Result string: 0.481

Query string: Consider next the molecule `CC(C)N1C(=O)c2ccccc2[C@](C)(C(=O)NCCCN(C)C)[C@@H]1c1ccc(CO)cc1` in the same way.
Result string: -1.26

Query string: Consider next the molecule `C=CCOC(=O)[C@@H]1[C@H]2C(=O)O[C@H](c3ccccc3)[C@H](c3ccccc3)N2[C@H](c2ccc(OCCOC(=O)[C@H]3C[C@H]4C(=O)N[C@@H](Cc5ccccc5)C(=O)N4[C@H]3c3ccc(O)cc3)cc2)[C@@]12C(=O)Nc1ccc(I)cc12` in the same way.
Result string: -1.76

Query string: Consider next the molecule `Cc1ccc(S[C@]2(C(=O)NCc3ccccc3)CC(=O)N(Cc3cc(C(F)(F)F)cc(C(F)(F)F)c3)[C@@H]2c2ccc(CO)cc2)cc1` in the same way.
Result string: -0.27

Query string: Consider next the molecule COc1cc(NN2C(C(O)c3ccccc3)C=CC3C(=O)N(c4ccccc4)C(=O)C32)cc(OC)c1OC (stereo not given) in the same way.
Result string: -0.933

Query string: Consider next the molecule `Cc1cccc(/C=C/C=O)c1` in the same way.
Result string: -4.56

Query string: Consider next the molecule O=C(NCC(O)CO)[C@]1(CCS(=O)(=O)c2ccccc2)N=C(c2ccc(OCCCO)cc2)O[C@@H]1c1ccccc1 (stereo not given in full) in the same way.
Result string: -0.149

Query string: Consider next the molecule `Cc1ccc(N2C(=O)c3ccccc3[C@@H](C(=O)NCC(C)C)[C@@H]2c2ccc(CO)cc2)nc1` in the same way.
Result string: 0.0994

Query string: Consider next the molecule `CC(C)NC(=O)[C@@]1(c2ccc([N+](=O)[O-])cc2)CC(=O)N(C(C)C)[C@@H]1c1ccc(CO)cc1` in the same way.
Result string: -0.476

Query string: Consider next the molecule CCOC(=O)N1C(c2ccc(OCCCO)cc2)=NC(C(=O)OC)N1C(=O)OCC (stereo not given) in the same way.
Result string: -0.265

Query string: Consider next the molecule CC1(C)C(=O)C(c2ccccc2)=C2CN3C(=O)N(CCc4ccccc4)C(=O)C3(Cc3ccccc3)C=C21 (stereo not given) in the same way.
Result string: 2.28

Query string: Consider next the molecule `COc1cc(CO)cc(I)c1O[C@H]1C=C(C(=O)NCCO)C[C@@H](N(CCc2cccc(F)c2)C(=O)CCC2CCCC2)[C@@H]1O` in the same way.
Result string: -6.99

====

- assayComment: optical density change of DRC41 E. coli – strain DRC41, OD650, 24 h, E. coli filamentation project, primary screen (AID 1093);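 further: MC1000 strain lacking acrAB efflux and sulA so SOS filamentation is blocked; test concentration not given here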
- cond: E. coli DRC41 growth, higher = more signal, called active from +8 up or from −8 down
experimentalEndpoint: z-score
Give the figure only, with no unit attached.

Query string: I have this molecule here, `CC(=O)NCCCC[C@@H]1NC(=O)[C@@H]2C[C@H](C(=O)NCc3ccc(F)cc3)[C@H](c3ccc(O)cc3)N2C1=O` , and I need its recorded z-score.
Result string: 1.53

Query string: Consider next the molecule CN1C(=O)C2C=CC(C(O)C3=C[C@H]4C[C@@H](C3)C4(C)C)N(Nc3ccc([N+](=O)[O-])cc3[N+](=O)[O-])C2C1=O (stereo partly specified) in the same way.
Result string: -0.43

Query string: Consider next the molecule `CCCNC(=O)[C@@]1(C)c2ccccc2C(=O)N(C(C)C)[C@H]1c1ccc(CO)cc1` in the same way.
Result string: -1.2

Query string: Consider next the molecule `COC(=O)[C@@]1(Cc2ccc(OC)cc2)[C@H]2c3cc(C(=O)N(C)C)n(CCSCCO)c3C[C@H]2CN1C(=O)c1ccccc1` in the same way.
Result string: -0.209

Query string: Consider next the molecule CCOC1=C2C(c3ccc(C)cc3)N(S(=O)(=O)c3ccc(C)cc3)CC2n2c(=O)n(-c3ccccc3)c(=O)n2C1 (stereo unspecified) in the same way.
Result string: -0.278

Query string: Consider next the molecule `Cc1c(NC(=O)/C(C#N)=C/C=C/c2ccccc2)c(=O)n(-c2ccccc2)n1C` in the same way.
Result string: 1.94

Query string: Consider next the molecule `C=C(C(=O)CC[C@@H](OC(=O)c1cccnc1)c1ccc(OCCO)cc1)C(C)C` in the same way.
Result string: -0.808

Query string: Consider next the molecule `Cc1cccc(/C=C/C=O)c1` in the same way.
Result string: -0.0384

Query string: Consider next the molecule `C=CCNC(=O)[C@@H]1[C@H]2C(=O)O[C@H](c3ccccc3)[C@H](c3ccccc3)N2[C@H](c2ccccc2OCCO)[C@@]12C(=O)N(C(=O)OCCOC)c1ccc(C#CCC(C(=O)OC)C(=O)OC)cc12` in the same way.
Result string: 0.221

Query string: Consider next the molecule O=C1C2C=CC(C(O)C3CC=CCC3)N(n3cnnc3)C2C(=O)N1Cc1ccccc1 (stereo unspecified) in the same way.
Result string: -1.09

Query string: Consider next the molecule `COc1ccc(C(=O)Nc2cccc(CN3C(=O)[C@@]4(O[C@@H](CC(=O)N5Cc6ccccc6C[C@H]5CO)[C@H]([Si](C)(C)c5ccc(OC)cc5)[C@H]4C)c4ccccc43)c2)cc1` in the same way.
Result string: -0.209

Query string: Consider next the molecule `CC(C)C(=C=CC[C@H](O)c1ccccc1OCCO)CCO` in the same way.
Result string: -0.105

Query string: Consider next the molecule Cc1ccc(C(C)CC(O)C2C=CC3C(=O)NC(=O)C3N2Nc2ccccn2)o1 (stereo unspecified) in the same way.
Result string: 0.504

Query string: Consider next the molecule `C=C(COC)/C(=C/C[C@H](OC(C)=O)c1ccccc1OCCO)c1cnc2ccccc2c1` in the same way.
Result string: 0.223

Query string: Consider next the molecule `CCCNC(=O)[C@@]1(C)c2ccccc2C(=O)N(Cc2cc(C(F)(F)F)cc(C(F)(F)F)c2)[C@H]1c1ccc(CO)cc1` in the same way.
Result string: -0.667

Query string: Consider next the molecule CCCCCN1CC=CC23O[C@@H]4C=CCCOC(=O)C4[C@H]2C(=O)N(CCCO)[C@@H]3C1=O (stereo partly specified) in the same way.
Result string: 2.22
